Experiment: Half life in rhesus monkey
Type: ADME, Macaca mulatta
Conditions: in vivo
# maps each entry to its half-life
Recorded Endpoint: half-life (h)

# Structure String, Value Observed
measured = [
    ("CC(C)[C@@H](C)[C@@]1(C)CC[C@]2(C)[C@H]3CC[C@@H]4[C@@]5(COC[C@@]4(C)[C@@H](OC[C@](C)(N)C(C)C)[C@H](n4ncnc4-c4ccncc4)C5)C3=CC[C@@]2(C)[C@@H]1C(=O)O", 6.1),
    ("CC(C)[C@@H](C)[C@@]1(C)CC[C@]2(C)[C@H]3CC[C@@H]4[C@@]5(COC[C@@]4(C)[C@@H](OC[C@](C)(N)C(C)(C)C)[C@H](n4ncnc4-c4ccncc4)C5)C3=CC[C@@]2(C)[C@@H]1C(=O)O", 5.7),
]
